Assay Explanation: self-splicing fitness, log relative to wild type (ln ratio); higher = more splicing; Tetrahymena group I intron in knt gene, E. coli kanamycin selection, DiMSum; sequences stand for … in CUCUCU…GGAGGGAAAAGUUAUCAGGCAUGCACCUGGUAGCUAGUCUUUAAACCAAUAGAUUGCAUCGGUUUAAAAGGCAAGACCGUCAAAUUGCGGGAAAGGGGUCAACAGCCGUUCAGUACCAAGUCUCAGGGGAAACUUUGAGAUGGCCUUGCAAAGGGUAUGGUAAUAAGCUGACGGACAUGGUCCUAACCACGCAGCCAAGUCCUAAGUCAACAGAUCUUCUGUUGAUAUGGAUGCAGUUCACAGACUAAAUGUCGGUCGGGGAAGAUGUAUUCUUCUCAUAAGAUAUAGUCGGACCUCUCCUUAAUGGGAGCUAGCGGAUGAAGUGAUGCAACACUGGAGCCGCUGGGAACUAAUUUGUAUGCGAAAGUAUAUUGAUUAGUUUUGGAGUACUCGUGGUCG;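 note: selection with 25 µg/mL kanamycin versus none on LB agar overnight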
Condition Details: 30 °C
Observation Type: self-splicing fitness (ln)
Form: value (number only, do not type unit).

Sample records with self-splicing fitness (ln):
1. AUGCAGCAAUAUUACGAGGU	-3.04
2. GACAAGCAAUAUUACGCUAA	-3.01
3. CAAAAGCAAUAUUACGUAAC	-3.75
4. AAAUAGCAAUAUUACGAGUA	-2.58
5. ACCUAGCAAUAUUACGUAAA	-2.13

Next:
q: So what's the measured self-splicing fitness (ln) for this one? `GUGCAGCAAUAUUACGGCGC`
a: -2.72

---

Assay Explanation: self-splicing fitness, log relative to wild type (ln ratio); higher = more splicing; Tetrahymena group I intron in knt gene, E. coli kanamycin selection, DiMSum; sequences stand for … in CUCUCU…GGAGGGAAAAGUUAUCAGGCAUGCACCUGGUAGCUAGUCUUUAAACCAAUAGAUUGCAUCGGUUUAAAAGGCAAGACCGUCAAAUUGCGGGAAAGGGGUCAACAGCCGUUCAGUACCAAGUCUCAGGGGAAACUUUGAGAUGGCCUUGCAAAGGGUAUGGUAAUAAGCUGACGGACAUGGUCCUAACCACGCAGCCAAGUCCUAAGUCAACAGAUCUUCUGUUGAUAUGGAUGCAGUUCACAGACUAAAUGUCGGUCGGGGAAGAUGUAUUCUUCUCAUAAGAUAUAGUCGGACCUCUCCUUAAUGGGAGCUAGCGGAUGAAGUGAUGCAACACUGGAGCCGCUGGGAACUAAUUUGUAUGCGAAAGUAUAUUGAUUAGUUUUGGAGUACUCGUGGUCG
Condition Details: 30 °C
Observation Type: self-splicing fitness (ln)

Field: example entries. Status: answers known.
1. GUUCAGCAAUAUUACGGGGU	-3.36
2. CGUCAGCAAUAUUACGCUAG	-0.963
3. UCUCAGCAAUAUUACGAUUU	-1.99
4. CGUAAGCAAUAUUACGAUUU	-2.66
5. ACCCAGCAAUAUUACGGAAU	-0.884

q: I have this sequence here, `UGGUAGCAAUAUUACGUCUA` , and I need its recorded self-splicing fitness (ln).
a: -0.44

q: I'd like to know its self-splicing fitness (ln). The sequence in question is `CAAGAGCAAUAUUACGCACG`
a: -1.96

q: What self-splicing fitness (ln) value was documented for this sequence, `GACAAGCAAUAUUACGCAUU` ?
a: -2.91

q: Need self-splicing fitness (ln), item `GUUGAGCAAUAUUACGGGCG`
a: -2.38
